- TESTED_TARGET: Maternal embryonic leucine zipper kinase (Homo sapiens) (UniProt Q14680)
- Sequence (Q14680 whole entry, looked up): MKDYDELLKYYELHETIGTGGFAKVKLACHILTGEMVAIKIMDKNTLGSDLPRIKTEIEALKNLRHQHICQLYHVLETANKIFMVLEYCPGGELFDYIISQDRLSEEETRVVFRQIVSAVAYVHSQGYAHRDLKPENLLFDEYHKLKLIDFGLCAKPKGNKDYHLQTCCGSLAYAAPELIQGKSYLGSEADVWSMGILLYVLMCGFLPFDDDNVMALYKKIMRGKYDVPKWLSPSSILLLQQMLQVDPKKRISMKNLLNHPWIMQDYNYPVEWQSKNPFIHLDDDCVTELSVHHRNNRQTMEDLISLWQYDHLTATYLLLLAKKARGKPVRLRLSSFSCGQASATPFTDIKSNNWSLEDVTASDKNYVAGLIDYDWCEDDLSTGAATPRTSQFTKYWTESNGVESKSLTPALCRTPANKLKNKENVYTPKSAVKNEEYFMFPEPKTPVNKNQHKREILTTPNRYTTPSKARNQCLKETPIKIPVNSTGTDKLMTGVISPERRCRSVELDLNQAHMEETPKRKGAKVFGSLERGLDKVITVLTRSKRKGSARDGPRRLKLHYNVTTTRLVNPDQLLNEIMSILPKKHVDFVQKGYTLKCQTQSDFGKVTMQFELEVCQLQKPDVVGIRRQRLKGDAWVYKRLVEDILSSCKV
- MEASUREMENT_PARAMETERS: at 10 µM
Lab note: anything with residual activity at or over 80% counts as Yes; the rest go in No.

Use these answered entries as a reference point.
| STRUCTURE_STRING | CLASS_LABEL |
| --- | --- |
| CC(C)N(CCC(=O)c1ccc2ccccc2c1)Cc1ccccc1 | Yes |
| N#C/C(=C\c1ccc(O)c(O)c1)C(=O)NCc1ccccc1 | No |

Inquiry: Textbook exercise: given the entry `COc1cc2c(cc1OC)-c1n[nH]c(Nc3cccc(F)c3)c1C2` , state whether its residual activity is greater than or equal to 80%.
Reply text: No

Inquiry: Textbook exercise: given the entry `COc1cc2nccc(Oc3ccc(NC(=S)NC(=O)c4ccccc4C)cc3)c2cc1OC` , state whether its residual activity is greater than or equal to 80%.
Reply text: Yes

Sourced from ChEMBL document CHEMBL2218924
